System: Solanum nigrum (SOLNI)
protocol summary: Pre-emergence biological efficacy, glasshouse pot test
Assay type: in vivo
stated conditions: 312 h, 1000 g/ha, after 13 days, 100=total damage, 0=no damage, read-out: Percentage damage caused to weed species SOLNI
Method: Seeds of Alopecurus myosuroides (ALOMY), Setaria faberi (SETFA), Echinochloa crus-galli (ECHCG), Solanum nigrum (SOLNI), Amaranthus retroflexus (AMARE) and Ipomea hederaceae (IPOHE) were sown in standard soil in pots. […] The test plants were then grown under controlled conditions in the glasshouse (at 24/16° C., day/night; 14 hours light; 65% humidity) and watered twice daily. After 13 days the test was evaluated (100=total damage to plant; 0=no damage to plant).
Below, each of the compounds is paired with its reported pest or weed control at 1000 g/ha value.
property: pest or weed control at 1000 g/ha (%)

>>> recorded_value("COC(=O)c1nc(-c2csc3ccc(C)cc23)nc(N)c1Cl")
0
>>> recorded_value("COC(=O)c1nc(-c2csc3ccccc23)nc(N)c1Cl")
0
>>> recorded_value("COC(=O)c1nc(-c2cccnc2)nc(N)c1Cl")
0
>>> recorded_value("COC(=O)c1nc(-c2cncc3ccccc23)nc(N)c1Cl")
0
>>> recorded_value("C=Cc1c(N)nc(-c2ccc(Cl)nc2)nc1C(=O)OC")
40
>>> recorded_value("CCOC(=O)c1nc(-c2ccccn2)nc(N)c1Cl")
0
>>> recorded_value("COC(=O)c1nc(-c2ccc(C#N)s2)nc(N)c1Cl")
0
>>> recorded_value("O=C(O)c1nc(-c2ccccn2)nc(Cl)c1Cl")
0
>>> recorded_value("COC(=O)c1nc(-c2ccc(OC)s2)nc(N)c1Cl")
0
>>> recorded_value("COC(=O)c1nc(-c2cccs2)nc(N)c1Cl")
0
>>> recorded_value("COC(=O)c1nc(-c2cc(Cl)nc(Cl)c2)nc(N)c1Cl")
0
>>> recorded_value("COC(=O)c1nc(-c2ccc(OC)nc2OC)nc(N)c1Cl")
0
>>> recorded_value("COC(=O)c1nc(-c2cc(Cl)sc2Cl)nc(N)c1Cl")
20
>>> recorded_value("COC(=O)c1nc(-c2cnc(OC)nc2)nc(N)c1Cl")
40
>>> recorded_value("COC(=O)c1nc(-c2cnn(C)c2)nc(N)c1Cl")
0
>>> recorded_value("Nc1nc(-c2ccc(Cl)s2)nc(C(=O)O)c1Cl")
30
>>> recorded_value("CCOC(=O)c1nc(-c2ccc(C(F)(F)F)cn2)nc(N)c1Cl")
0
>>> recorded_value("COC(=O)c1nc(-c2ccc(OC)nc2)nc(N)c1Cl")
20
>>> recorded_value("COC(=O)c1nc(-c2cccnc2OC)nc(N)c1Cl")
20
>>> recorded_value("COC(=O)c1nc(-c2ccc(C#N)nc2)nc(N)c1Cl")
0
>>> recorded_value("COC(=O)c1nc(-c2ccc(Cl)nc2)nc(N)c1Cl")
60
>>> recorded_value("COC(=O)c1nc(-c2ccc(C)nc2F)nc(N)c1Cl")
40
>>> recorded_value("COC(=O)c1nc(-c2ccoc2)nc(N)c1Cl")
0
